- System Tested: the molecule itself
- Assay Notes: AUC
// NB: equality with 4 µM counts as Not satisfied; only Kd strictly below is Satisfied

Exercise: Confirm or reject: Kd of HCoV‐229E nucleocapsid (N) protein C‐terminal domain truncation N245–376 (domain or fragment) QKPRWKRQPNDDVTSNVTQCFGPRDLDHNFGSAGVVANGVKAKGYPQFAELVPSTAAMLFDSHIVSKESGNTVVLTFTTRVTVPKDHPHLGKFLEELNAFTREMQQHPLLNPSALEFNPSQTSPATAEPVRD lies strictly below 4 µM
Solution: Not satisfied

Exercise: Please let me know if HCoV‐229E nucleocapsid (N) protein C‐terminal domain truncation N245–370 (domain or fragment) QKPRWKRQPNDDVTSNVTQCFGPRDLDHNFGSAGVVANGVKAKGYPQFAELVPSTAAMLFDSHIVSKESGNTVVLTFTTRVTVPKDHPHLGKFLEELNAFTREMQQHPLLNPSALEFNPSQTSPAT shows Kd below 4 µM.
Solution: Not satisfied

Exercise: Quick check: does HCoV‐229E nucleocapsid (N) protein C‐terminal domain N245–389 (domain or fragment) QKPRWKRQPNDDVTSNVTQCFGPRDLDHNFGSAGVVANGVKAKGYPQFAELVPSTAAMLFDSHIVSKESGNTVVLTFTTRVTVPKDHPHLGKFLEELNAFTREMQQHPLLNPSALEFNPSQTSPATAEPVRDEVSIETDIIDEVN have Kd under 4 µM?
Solution: Satisfied

Exercise: Please state whether Kd is below 4 µM for HCoV‐229E nucleocapsid (N) protein C‐terminal domain truncation N245–382 (domain or fragment) QKPRWKRQPNDDVTSNVTQCFGPRDLDHNFGSAGVVANGVKAKGYPQFAELVPSTAAMLFDSHIVSKESGNTVVLTFTTRVTVPKDHPHLGKFLEELNAFTREMQQHPLLNPSALEFNPSQTSPATAEPVRDEVSIET
Solution: Satisfied

Exercise: Problem: For the protein HCoV‐229E nucleocapsid (N) protein C‐terminal domain truncation N245–350 (domain or fragment) QKPRWKRQPNDDVTSNVTQCFGPRDLDHNFGSAGVVANGVKAKGYPQFAELVPSTAAMLFDSHIVSKESGNTVVLTFTTRVTVPKDHPHLGKFLEELNAFTREMQQ , is Kd under 4 µM?
Solution: Not satisfied
